Reference source for all entries: patent US20100210617A1

targetDesc: PKA catalytic domain (Homo sapiens)
pIC50: −log10 of the molar value. Structures can show the parent of a compound that is named as a salt.
Reported pIC50 values for a set of compounds

Take a look at these entries with their results.
NCCC(O)(c1ccc(Cl)cc1)c1ccc(-c2cn[nH]c2)cc1 (racemic): > 7.00
Cc1n[nH]cc1-c1ccc(C(O)(CN)c2ccc(Cl)cc2)cc1 (centres unmarked): > 7.00
Clc1ccc(C2(c3ccc(-c4cn[nH]c4)cc3)CCNC2)cc1 (centres unmarked) [Example 81, formate]: > 6.00
COc1ccc(C2(c3ccc(-c4c[nH]nc4C)cc3)CCNCC2)cc1 [Example 86, dihydrochloride]: > 7.00
NCC(O)(c1ccc(Cl)cc1)c1ccc(-c2cn[nH]c2)cn1 (centres unmarked) [Example 91, hydrochloride]: > 7.00
COc1ccc(C2(c3ccc(-c4cn[nH]c4)cc3)CNC2)cc1 [Example 82, formate]: > 6.00

# pIC50 measured on PKA catalytic domain (Homo sapiens) for item COc1ccc(-c2cccc(C3(c4ccc(-c5cn[nH]c5)cc4)CCNCC3)c2)cc1 [Example 85, dihydrochloride] = > 7.00

# pIC50 measured on PKA catalytic domain (Homo sapiens) for item NCC[C@@](O)(c1ccc(Cl)cc1)c1ccc(-c2cn[nH]c2)cc1 [Example 99A] = > 7.00
